assay: Percent bioavailability in dog; type: ADME, organism-based, Canis lupus familiaris; conditions: in vivo, read-out: Bioavailabiility
ATTRIBUTE_MEASURED: bioavailability (%)
API: value field is a number in %; no unit string.

Report bioavailability for `CC1=C(C(=O)NCCCN2CCC(c3ccc(F)cc3C#N)CC2)[C@@H](c2ccc(F)c(F)c2)CC(=O)N1` please.
34

* * *

Target chain: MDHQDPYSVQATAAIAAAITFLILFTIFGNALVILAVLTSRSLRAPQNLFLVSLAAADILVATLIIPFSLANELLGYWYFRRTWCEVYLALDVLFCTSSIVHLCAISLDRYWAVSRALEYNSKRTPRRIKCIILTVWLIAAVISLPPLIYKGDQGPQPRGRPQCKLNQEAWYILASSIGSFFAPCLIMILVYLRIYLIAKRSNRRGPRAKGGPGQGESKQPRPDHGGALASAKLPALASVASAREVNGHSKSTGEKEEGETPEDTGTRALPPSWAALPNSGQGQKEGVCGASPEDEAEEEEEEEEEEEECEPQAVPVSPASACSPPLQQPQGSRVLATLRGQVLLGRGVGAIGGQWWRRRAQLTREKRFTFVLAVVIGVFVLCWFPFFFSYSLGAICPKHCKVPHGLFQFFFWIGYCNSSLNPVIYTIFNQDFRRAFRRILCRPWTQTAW
Define the label as 1 (yes) when Ki is strictly less than 500 nM and as 0 (no) in all remaining cases.

The following molecules have reported results that may help.
CC1=C(C(=O)NCCCN2CCC(C#N)(c3ccc(F)cc3F)CC2)[C@@H](c2ccc(F)c(F)c2)CC(=O)N1C | 0 (no)
CC1=C(C(=O)NCCCN2CCC(c3ccc(F)cc3)CC2)[C@@H](c2ccc(F)c(F)c2)CC(=O)N1 | 1 (yes)

Please indicate whether the reported Ki of `CC1=C(C(=O)NCCCN2CCC(c3ccc(F)cc3C#N)CC2)[C@@H](c2ccc(F)c(F)c2)CC(=O)N1C` is strictly below 500 nM.
1 (yes)

Below 500 nM on Ki? Entry `CC1=C(C(=O)NCCCN2CCC(C#N)(c3ccc(F)cc3C#N)CC2)[C@@H](c2ccc(F)c(F)c2)CC(=O)N1`
0 (no)

is_below(Ki, 500 nM) for `CC1=C(C(=O)NCCCN2CCC(C#N)(c3ccc(F)cc3C#N)CC2)[C@@H](c2ccc(F)c(F)c2)CC(=O)N1C` ?
0 (no)

Hi there! Is Ki for `CC1=C(C(=O)NCCCN2CCC(C#N)(c3ccc(F)cc3F)CC2)[C@@H](c2ccc(F)c(F)c2)CC(=O)N1` below 500 nM, do you know?
0 (no)

Bench note: check whether `CC1=C(C(=O)NCCCN2CCC(C#N)(c3ccc(F)cc3)CC2)[C@@H](c2ccc(F)c(F)c2)CC(=O)N1C` shows Ki below 500 nM
0 (no)

* * *

test: t1/2 value in rat; type: ADME, organism-based; settings: in vivo
ATTRIBUTE_MEASURED: half-life (h)
The answer is to be given in h; state only the numeric part.

Param item = `CC1=C(C(=O)NCCCN2CCC(c3ccc(F)cc3C#N)CC2)[C@@H](c2ccc(F)c(F)c2)CC(=O)N1C` ; retrieve measured half-life.
1.4

Requested read-out: half-life. Entry: `CC1=C(C(=O)NCCCN2CCC(c3ccc(F)cc3C#N)CC2)[C@@H](c2ccc(F)c(F)c2)CC(=O)N1`
4.8

* * *

Quick list: pKi per entry.
target: UniProtKB P25100; experiment: In vitro antagonism at Alpha-1D adrenergic receptor
Sequence (P25100 whole entry): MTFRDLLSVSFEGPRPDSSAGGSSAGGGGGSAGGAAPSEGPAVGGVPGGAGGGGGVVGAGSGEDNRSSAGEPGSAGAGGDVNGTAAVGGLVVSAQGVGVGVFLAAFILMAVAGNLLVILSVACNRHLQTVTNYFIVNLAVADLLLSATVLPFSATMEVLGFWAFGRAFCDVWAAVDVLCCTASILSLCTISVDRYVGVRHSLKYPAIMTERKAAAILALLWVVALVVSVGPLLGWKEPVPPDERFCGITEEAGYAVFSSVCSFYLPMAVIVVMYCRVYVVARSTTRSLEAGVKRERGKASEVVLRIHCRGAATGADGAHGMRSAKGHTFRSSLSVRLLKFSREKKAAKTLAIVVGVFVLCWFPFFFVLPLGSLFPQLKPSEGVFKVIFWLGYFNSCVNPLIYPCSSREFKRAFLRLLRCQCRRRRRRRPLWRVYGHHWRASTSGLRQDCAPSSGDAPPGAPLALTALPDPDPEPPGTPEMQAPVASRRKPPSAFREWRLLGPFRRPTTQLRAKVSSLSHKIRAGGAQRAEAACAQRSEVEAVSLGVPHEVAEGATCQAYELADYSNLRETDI
When answering, recall that pKi equals minus log10 of the concentration in mol/L, and write that number alone.

CC1=C(C(=O)NCCCN2CCC(C#N)(c3ccc(F)cc3F)CC2)[C@@H](c2ccc(F)c(F)c2)CC(=O)N1 | 6.23
CC1=C(C(=O)NCCCN2CCC(c3ccc(F)cc3C#N)CC2)[C@@H](c2ccc(F)c(F)c2)CC(=O)N1 | 6.82

Recorded pKi for `CC1=C(C(=O)NCCCN2CCC(c3ccc(F)cc3C#N)CC2)[C@@H](c2ccc(F)c(F)c2)CC(=O)N1C` , please?
6.23

Give the measured pKi of `CC1=C(C(=O)NCCCN2CCC(C#N)(c3ccc(F)cc3F)CC2)[C@@H](c2ccc(F)c(F)c2)CC(=O)N1C` .
5.94

For `CC1=C(C(=O)NCCCN2CCC(c3ccc(F)cc3)CC2)[C@@H](c2ccc(F)c(F)c2)CC(=O)N1C` , what is its reported pKi?
6.60

Endpoint output: pKi of `CC1=C(C(=O)NCCCN2CCC(c3ccc(F)cc3)CC2)[C@@H](c2ccc(F)c(F)c2)CC(=O)N1` . Value?
6.70

Return reported pKi; argument: `CC1=C(C(=O)NCCCN2CCC(C#N)(c3ccc(F)cc3)CC2)[C@@H](c2ccc(F)c(F)c2)CC(=O)N1C`
6.06

I have this molecule here, `CC1=C(C(=O)NCCCN2CCC(c3ccccc3C#N)CC2)[C@@H](c2ccc(F)c(F)c2)CC(=O)N1C` , and I need its recorded pKi.
6.17

Values compiled from ChEMBL document CHEMBL1133242.
